Hello, the source for this data is the supplement of paper PMC12667976, in case you need it.

Recorded AIRE transcriptional activation functional score by entry
B1: library; numbered along this chain (parent)
chain: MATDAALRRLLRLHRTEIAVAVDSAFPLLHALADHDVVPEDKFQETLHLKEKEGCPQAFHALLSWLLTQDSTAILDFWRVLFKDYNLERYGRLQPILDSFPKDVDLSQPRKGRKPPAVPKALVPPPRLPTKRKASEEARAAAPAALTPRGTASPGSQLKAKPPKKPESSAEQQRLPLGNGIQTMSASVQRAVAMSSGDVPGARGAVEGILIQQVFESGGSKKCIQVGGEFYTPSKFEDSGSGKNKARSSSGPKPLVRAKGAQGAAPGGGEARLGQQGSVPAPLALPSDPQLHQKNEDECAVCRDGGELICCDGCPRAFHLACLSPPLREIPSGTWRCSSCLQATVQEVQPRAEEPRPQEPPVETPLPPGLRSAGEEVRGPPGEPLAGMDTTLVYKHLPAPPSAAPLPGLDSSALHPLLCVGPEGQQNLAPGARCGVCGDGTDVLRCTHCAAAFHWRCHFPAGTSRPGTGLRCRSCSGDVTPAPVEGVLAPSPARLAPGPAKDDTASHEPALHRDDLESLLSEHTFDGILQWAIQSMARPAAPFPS

variants of: B1; test: AIRE transcriptional activation functional score (insulin promoter-GFP; nonsense median 0, synonymous median 1) (normalised score); higher = higher AIRE activity (more reporter activation); conditions: with insulin promoter-GFP reporter in HEK293
Just the number, please, no unit attached.

In [3]: df
Out[3]:
   variantdesignation  recordedmeasurement
0               G369I                 1.18
1                V37L              -0.0654
2               W531D                0.357
3               Q530P                0.385
4               P325R                0.876
5               E171Q                 1.15
6                I18L                0.304
7               K243V                0.856
8               I309K                0.472
9               R456G                 1.27

Asked: Tell me the measured AIRE transcriptional activation functional score of S156L , please.
Given back: 1.55

Asked: Tell me the measured AIRE transcriptional activation functional score of A537V , please.
Given back: 0.891

Asked: Tell me the measured AIRE transcriptional activation functional score of P416T , please.
Given back: 0.937
